Assay: Oil Stability Index (OSI) induction time, AOCS Official Method Cd 12b-92, at 98° C.
Conditions: 1000 ppm, single antioxidants directly dissolved in soybean oil, 98° C., control 14.8 h
PROPERTY_MEASURED: OSI induction time of soybean oil stabilized with synthetic antioxidants (h)
Output spec: scalar in h, unitless text.

Example entries begin here.
COMPOUND	EXPERIMENTAL_RESULT
O=C(O)c1cc(O)c(O)c(O)c1 [Gallic acid, gallic acid]	47.4
CCCOC(=O)c1cc(O)c(O)c(O)c1 [Propyl gallate, propyl gallate]	53.1
COc1ccc(O)c(C(C)(C)C)c1 [BHA, butylated hydroxyanisole]	21.5

Now for another entry.
Input: Which measured OSI induction time of soybean oil stabilized with synthetic antioxidants value corresponds to CCCCCCCCOC(=O)c1cc(O)c(O)c(O)c1 [Octyl gallate, octyl gallate] ?
Output: 47.6

----------
Assay: Oil Stability Index (OSI) induction time, AOCS Official Method Cd 12b-92, at 98° C.
Conditions: 500 ppm, single antioxidants directly dissolved in soybean oil, 98° C., control 14.8 h
# Lookup of reported OSI induction time of soybean oil stabilized with synthetic antioxidants keyed by entry
Output spec: scalar in h, unitless text.

Input: Which measured OSI induction time of soybean oil stabilized with synthetic antioxidants value corresponds to "O=C(O)c1cc(O)c(O)c(O)c1" ?
Output: 41.8

Input: Which measured OSI induction time of soybean oil stabilized with synthetic antioxidants value corresponds to Cc1cc(C(C)(C)C)c(O)c(C(C)(C)C)c1 [BHT, butylated hydroxyltoluene] ?
Output: 20

Input: Which measured OSI induction time of soybean oil stabilized with synthetic antioxidants value corresponds to CCCCCCCCOC(=O)c1cc(O)c(O)c(O)c1 [Octyl gallate, octyl gallate] ?
Output: 38.6

Input: Which measured OSI induction time of soybean oil stabilized with synthetic antioxidants value corresponds to COc1ccc(O)c(C(C)(C)C)c1 [BHA, butylated hydroxyanisole] ?
Output: 15.5

Input: Which measured OSI induction time of soybean oil stabilized with synthetic antioxidants value corresponds to CCCOC(=O)c1cc(O)c(O)c(O)c1 [Propyl gallate, propyl gallate] ?
Output: 44.5

----------
Test: Oil Stability Index (OSI) induction time, AOCS Official Method Cd 12b-92, at 98° C.
Conditions: 250 ppm, single antioxidants directly dissolved in soybean oil, 98° C., control 14.8 h
Classify by measured OSI induction time of soybean oil stabilized with synthetic antioxidants: MET if it is equal to or exceeds 30 h, NOT MET if it is smaller.

Look over these answered cases.
COMPOUND	CATEGORY
Cc1cc(C(C)(C)C)c(O)c(C(C)(C)C)c1 [BHT, butylated hydroxyltoluene]	NOT MET
CCCOC(=O)c1cc(O)c(O)c(O)c1 [Propyl gallate, propyl gallate]	MET

In the following, a different compound is considered.
Input: Test whether the compound COc1ccc(O)c(C(C)(C)C)c1 [BHA, butylated hydroxyanisole] records OSI induction time of soybean oil stabilized with synthetic antioxidants of 30 h or higher.
Output: NOT MET
